test system: SN12C renal; test: NCI-60 one-dose screen, 48 h (100 = growth as untreated, 0 = no growth, -100 = all killed); conditions: 10 µM unless noted
About 83,000 compounds went through this panel and 20% of them were active in at least one assay; those are over-represented in the sample as a whole.
Measured Quantity: growth (%)
Provide the reading as a plain figure in %.

See these solved cases before continuing.
Compound	growth / %
S=P(SP(=S)(c1ccccc1)c1ccccc1)(c1ccccc1)c1ccccc1	97.5
C=C[Se]CC(=O)/C=C/c1ccccc1	73.6
[N-]=[N+]=CC(=O)CCC(=O)C=[N+]=[N-]	107
CC1=CC(=O)CCC12CCOC2=O (stereo not drawn)	95.2
CCC1(NC(=O)c2cc(F)c(F)c(F)c2F)C(=O)NC(=O)N(C(C)C)C1=O (stereo not drawn)	81.7

// field: growth; key: COc1cc(-c2ccc(N)c(OC)c2)ccc1N ; value = 104

growth recorded for this compound, O=C(CBr)OCCOC(=O)CBr , is 58

The recorded growth for entry O=[N+]([O-])c1cc(Br)c(O)c(Br)c1 equals 106

Query CC(=O)C(N)Cc1ccccc1 (stereo not drawn) yields growth of 95.7
